Recorded melting point by entry

Look over these answered cases.
{"columns": ["compound", "melting point"],
 "data": [
  ["CCOP(=O)(OCC)C(Nc1nocc1C)P(=O)(OCC)OCC", "68 to 69 °C"],
  ["N#CCCC(C=O)(c1ccccc1)c1ccccc1", "80 to 82 °C"]
]}

Q) // returns reported melting point for input COc1ccc(CN2Cc3c(-c4noc(C5CC5)n4)ncn3-c3ccc(Cl)cc3C2=O)c(OC)c1
A) 198 to 205 °C

Q) // returns reported melting point for input CN(Cc1cccc(-c2ccc(CC3SC(=O)NC3=O)cc2)c1)C(=O)c1ccc2cc(O)ccc2c1 (stereo not given)
A) 218 °C

Q) // returns reported melting point for input O=C(c1ccc(F)c(F)c1Nc1ccc(I)cc1F)N1CC(O)CO1 (stereo not given)
A) 122 to 124 °C

###

Recorded melting point by entry

{"columns": ["compound", "melting point"],
 "data": [
  ["O=[N+]([O-])c1c(O)ccc2cc(-c3ccc(O)cc3)ccc12", "199 to 201 °C"]
]}

Q) // returns reported melting point for input O=C1NC(=O)C(Nc2ccc3ccccc3c2)S1 (stereo unspecified)
A) 200 to 201 °C

Q) // returns reported melting point for input COC(=O)C(=O)c1occc1/C=C/c1ccccc1
A) 116 °C

###

readout: melting point

{"columns": ["compound", "melting point"],
 "data": [
  ["CC(C)(C)OC(=O)N1CCN2C(=O)N(c3ccc(C#N)c4ccccc34)C(=O)C2C1 (stereo not given)", "222 to 224 °C"],
  ["CCNC(=O)c1ccc(CN2CCN(c3ccncc3)CC2)cc1", "213 to 215 °C"],
  ["CC(C)(C)c1cc(OCc2ccccc2C(=O)Nc2nnn[nH]2)cc(C(C)(C)C)c1", "251 to 254 °C"],
  ["O=C1OC(COc2ccc(CCCO)cc2)CN1c1ccc(Cl)cc1 (stereo not given)", "119 to 120 °C"]
]}

Q) // returns reported melting point for input Cc1cc([N+](=O)[O-])c(C)cc1Oc1cccc(C(F)(F)F)c1
A) 68 to 71 °C

Q) // returns reported melting point for input CN1Cc2c(C#Cc3ccc(Cl)cc3)ncn2-c2ccc(F)cc2C1=O
A) 221 to 222 °C

Q) // returns reported melting point for input CNC(=O)Cn1nc(-c2ccccc2)c(-c2ccccc2)c(C#N)c1=O
A) 292 to 294 °C

Q) // returns reported melting point for input OCC1CCN(c2nc3ccccc3s2)CC1
A) 76 to 80 °C

Q) // returns reported melting point for input C[C@@H](NCC1COc2ccccc2N1)c1ccccc1 (stereo not given in full)
A) 91 to 92 °C

###

Recorded melting point by entry

{"columns": ["compound", "readout", "test-result"],
 "data": [
  ["Cc1nc(=O)[nH]c2cc(Cl)c(NC(N)=O)cc12", "melting point", "> 310 °C"],
  ["O=C(Nc1ccccn1)c1c(C(F)(F)F)nc(-c2ccccc2)c(-c2ccccc2)c1O", "melting point", "208 to 210 °C"],
  ["COc1ccc(C(C=NO)C(C)C)cc1OC (stereo unspecified)", "melting point", "89 °C"],
  ["O=C(O)CCC(=O)c1ccc(OC2CCCCC2)cc1", "melting point", "190 to 192 °C"],
  ["CC(=O)C1=C(O)C(=C(C)Nc2ccccc2Cl)C(=O)OC1=O", "melting point", "143 to 145 °C"]
]}

Q) // returns reported melting point for input CC(C)N(CCC(CCN(C)C)(C(N)=O)c1ccccc1)C(C)C (stereo unspecified)
A) 75 to 78 °C

Q) // returns reported melting point for input COc1ccc2ccc3c(c2c1)C=C(C#N)CO3
A) 134 °C

Q) // returns reported melting point for input COc1ccc(/C=C/C(=O)C2C(=O)CC(c3ccc(OC)cc3)C([N+](=O)[O-])C2c2ccc(OC)cc2)cc1 (stereo unspecified)
A) 200 to 202 °C

Q) // returns reported melting point for input CSc1nc(C#N)c(I)c(C(F)(F)F)n1
A) 68 to 69 °C

Q) // returns reported melting point for input CCCC12CCC(=O)C=C1c1c(cc(OC)c(Cl)c1Cl)C2O (stereo unspecified)
A) 173 to 175 °C

Q) // returns reported melting point for input Cc1nc(N)c(C(N)=S)s1
A) 209 to 213 °C

###

Recorded melting point by entry

Look over these answered cases.
{"columns": ["molecule", "melting point"],
 "data": [
  ["CNC1CCCN(c2ccc3c(NC(=O)CC4CCCCC4)c(Cl)ccc3n2)C1 (stereo unspecified)", "158 to 159 °C"],
  ["Cn1nnnc1SCc1ccccc1", "48.5 to 49.5 °C"],
  ["O=c1[nH]c2c(n(O)c1=O)C1=C(CCC(n3ccc(CN4CCN(C(c5ccccc5)c5ccccc5)CC4)c3)=C1)CC2", "> 200 °C"],
  ["O=C(NCCN1CCN(C(c2ccccc2)c2ccncc2)CC1)C1CSC(c2cccnc2)N1 (stereo unspecified)", "160 to 162 °C"],
  ["Cn1ccc(=O)c(OCc2ccccc2)c1C(=O)c1cccnc1", "210 to 216 °C"],
  ["C=C(C(=O)OC)C(=O)c1ccc(OC)cc1", "75 to 76 °C"]
]}

Read the next record carefully.
Q) // returns reported melting point for input N#Cc1cnc2cc(-c3ccc(CO)cc3)sc2c1Nc1ccc(Oc2ccccc2)cc1
A) 225 to 228 °C

###

readout: melting point

{"columns": ["molecule", "melting point"],
 "data": [
  ["Cc1cc(C)nc(NC(=N)Nc2ccccc2C(F)(F)F)n1", "161 to 162 °C"],
  ["O=C1CCCc2nc3ccccc3c(NCc3ccccc3)c21", "162 to 163 °C"],
  ["CCCc1nn(C)c2c(=O)[nH]c(Cc3ccc(N(CC)CC)cc3)nc12", "201 to 203 °C"],
  ["CC1CCCN1c1ccccc1NC(N)=S (stereo not given)", "145 to 148 °C"],
  ["CSC1(C)C(=O)N(C(C)=O)c2ccc(C3=NNC(=O)SC3)cc21 (stereo not given)", "198 °C"]
]}

Q) // returns reported melting point for input Cc1cc(Cn2c(-c3ccccc3)nc(Cl)c2CC#N)ccc1O
A) 194 to 196 °C

Q) // returns reported melting point for input COC(=O)CCc1cc(C(C)(C)C)c(O)c(C(C)(C)C)c1
A) 63 to 64.5 °C

Q) // returns reported melting point for input O=C(O)C1CCc2[nH]c3ccc(Cl)cc3c2C1 (stereo not given)
A) 181 to 183 °C

###

readout: melting point

Look over these answered cases.
{"columns": ["compound", "melting point"],
 "data": [
  ["COCC1CN(c2ccc(C3CCC(OC)CC3)cc2)C(=O)O1 (stereo unspecified)", "82 to 83 °C"],
  ["CCCCOCCOc1ccc(-c2ccc3c(c2)C=C(C(=O)Nc2ccc(S(=O)Cc4nncn4CCCC)cc2)CCN3CC(C)C)cc1 (stereo unspecified)", "178 to 180 °C"],
  ["CC(C)(C)c1cc(N2Cc3ccccc3C2=O)cc(C(C)(C)C)c1O", "205 to 207 °C"],
  ["CC(C)(C)Cc1nc2cc(CC(=O)O)ccc2o1", "108 to 109 °C"]
]}

Q) // returns reported melting point for input CC(C)N1C(=O)c2cnc(Cl)cc2C1=O
A) 94 to 96 °C

Q) // returns reported melting point for input CNCC(=O)N[C@@H](CCCNC(=N)N)C(=O)N[C@@H](CCCNC(=N)N)C(=O)N[C@@H](C)P(=O)(O)O
A) 220 °C

Q) // returns reported melting point for input CCCn1nc2c(N)nc3ccccc3c2c1CCCc1cc(C)no1
A) 183 to 184 °C

Q) // returns reported melting point for input COc1cc(CC(=O)Nc2ccc(I)cc2)ccc1NC(=O)Nc1ccccc1C
A) > 200 °C

Q) // returns reported melting point for input CC(C)(O)Cn1cnc2c1c1ccccc1n1nnnc21
A) 246 to 247 °C

Q) // returns reported melting point for input CC(=O)Oc1ccc(-n2cc(C(=O)OC3CCc4ccccc43)c(=O)cc2-c2cc3ccccc3s2)cc1 (stereo unspecified)
A) 234 to 236 °C

Q) // returns reported melting point for input CN(CCOc1ccc(C=O)cc1)C(=O)OC(C)(C)C
A) 62 to 65 °C

Q) // returns reported melting point for input FC(F)(F)c1ccccc1N=C1CCCc2cc3c(nc21)C(=Nc1ccccc1C(F)(F)F)CCC3
A) 162 to 164 °C

Q) // returns reported melting point for input COC(=O)c1cc(C(=O)OC)cc(P(c2ccccc2)c2ccccc2)c1
A) 103 to 104 °C

Q) // returns reported melting point for input Cc1noc(-c2ccc(Br)c(C)c2)n1
A) 75 to 77 °C

Q) // returns reported melting point for input O=S(=O)(c1cc(-c2ccc(F)cc2)c(-c2ccc(F)cc2)s1)C(F)(F)F
A) 104 to 106 °C

Q) // returns reported melting point for input c1ccc(CC2CNCCNCCNCCNCCN2)cc1 (stereo unspecified)
A) 98 to 100 °C

Q) // returns reported melting point for input O=c1[nH][nH]c(=O)n1-c1c(F)cc(Cl)c2c1CCCO2
A) 271 to 273 °C

Q) // returns reported melting point for input COc1cc2c(cc1OC)C(C)Cn1c-2cc(=Nc2c(C)cc(C)cc2C)n(C)c1=O (stereo unspecified)
A) 156 to 157 °C
